# Test system: 362531-283-R-J2-PDC complex spheroid viability;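 also: spheroids exposed to the agents for 7 days before readout; luminescence viability as percent of DMSO vehicle control wells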
# Assay Explanation: Anticancer human tumor 362531-283-R-J2-PDC patient-derived colon adenocarcinoma cell line growth inhibition [RAS]
# Run Conditions: second compound 0.316 µM; first compound 0.00316 µM; stronger effect = lower value
Each record here notes measured viability, T/C.
Expressed in %, but write only the number.

Recorded viability, T/C, per entry:
C=CC(=O)Nc1cc(Nc2nccc(-c3cn(C)c4ccccc34)n2)c(OC)cc1N(C)CCN(C)C + C=CC(=O)N1CCN(c2nc(OCC3CCCN3C)nc3c(F)c(-c4nc(N)cc(C)c4C(F)(F)F)c(Cl)cc23)C(C)C1 | 93.8
O=C(c1ccc(F)c(F)c1Nc1ccc(I)cc1F)N1CC(O)([C@@H]2CCCCN2)C1 + C#Cc1c(F)ccc2cc(O)cc(-c3ncc4c(N5CC6CCC(C5)N6)nc(OCC56CCCN5CC(F)C6)nc4c3F)c12 | 90.1
C=CC(=O)Nc1cc(Nc2nccc(-c3cn(C)c4ccccc34)n2)c(OC)cc1N(C)CCN(C)C + C#Cc1c(F)ccc2cc(O)cc(-c3ncc4c(N5CC6CCC(C5)N6)nc(OCC56CCCN5CC(F)C6)nc4c3F)c12 | 95.9
CCN1CCN(Cc2ccc(Nc3ncc(F)c(-c4cc(F)c5nc(C)n(C(C)C)c5c4)n3)nc2)CC1 + C#Cc1c(F)ccc2cc(O)cc(-c3ncc4c(N5CC6CCC(C5)N6)nc(OCC56CCCN5CC(F)C6)nc4c3F)c12 | 93.8

Next item in the queue.
QUERY: Output measured viability, T/C for this item: CC(C)n1nc(-c2ccc3oc(N)nc3c2)c2c(N)ncnc21 + C#Cc1c(F)ccc2cc(O)cc(-c3ncc4c(N5CC6CCC(C5)N6)nc(OCC56CCCN5CC(F)C6)nc4c3F)c12
RESULT: 85.6
